Source: the supplement of paper PMC10065799

# Tested on: Fer (mouse);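 also: 11-residue human phosphosite peptides and single-mutation variants displayed on the E. coli surface, counted by deep sequencing, each peptide's frequency after selection divided by its frequency in the unselected input library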;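 also: frequency after pTyr selection over input frequency; kinase dosed for 20-30% of maximal phosphorylation in three min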
# Assay remarks: phosphorylation enrichment, bacterial display (enrichment ratio); higher = better substrate or ligand; peptides without Tyr show the background
Readout: phosphorylation enrichment
Give the figure by itself; no unit, no explanation.

Requested field: phosphorylation enrichment. Item: IGERTYGQVYK [CDK13_Y716_G714R]
0.392

Query FIGVTYKNEED [PDGFRA_Y993_YF] next
0.49

Query RETLTYAQAQR [BRD1_Y33] next
0.42

Query SVVVPYGPPEV [TP53_Y220_E221G] next
0.402

Query QKINNYLTVPA [SLC9A1_Y683] next
0.497

Query QEGPEYWDQNT [HLA-A_Y83_E87N] next
0.802

Query TRDTDYQMTKR [ADA_Y308_L304R] next
0.359

Query KFADVYVGICL [B3GALNT1_Y269_E266A] next
0.978

Query RMETAYGPSVT [MXRA5_Y2717_E2716A] next
0.617

Query PVQAAYQKVEA [HBB_Y131_V135E] next
0.676
